tested on: P450 1A1/1A2; assay: Western blot of liver microsomes, P450 1A1/1A2 protein expression; details: C57BL/6 mice, 100 mg/kg p.o. 3 days
assay-readout: P450 1A1/1A2 protein expression (western blot densitometry)

{"record-smiles": "CC(C)=CCC/C(C)=C/COc1c2ccoc2cc2oc(=O)ccc12", "result": "increased"}
{"record-smiles": "O=c1ccc2ccc3occc3c2o1", "result": "increased"}

The origin of these recorded values is paper PMC2585982.
